Reported Change by item:
# Test system: Rattus norvegicus
# TEST NAME: Percent change from pre-treatment in Non HDL-Cholesterol level at 30 mg/kg after 2 weeks.
# Assay type: functional

// worked examples, Change included
-- ask Answer with the recorded Change for the molecule listed here: CC(C)(CO)CCCCCOCCCCC(C)(C)CO
-- reply 17%

-- ask Answer with the recorded Change for the molecule listed here: CC(CO)(CCCCOCCCC(C)(CO)c1ccccc1)c1ccccc1 (centres undefined)
-- reply 45%

-- ask Answer with the recorded Change for the molecule listed here: CC(C)(CO)CCCOCCCC(C)(C)CO
-- reply 58%

Next:
-- ask Answer with the recorded Change for the molecule listed here: CC(C)(CO)CCCCOCCCC(C)(C)CO
-- reply 74%

---

# Test system: Rattus norvegicus
# TEST NAME: Percent change from pre-treatment triglycerides level at 100 mg/Kg after 1 week
# Format: functional
READOUT KIND: Change (%)
Reply numerically in %, unit not repeated.

-- ask Answer with the recorded Change for the molecule listed here: CC(C)(CCCOCCOCCCC(C)(C)C(=O)O)C(=O)O
-- reply -24

-- ask Answer with the recorded Change for the molecule listed here: CC(C)(CO)CCCC1CCCC(CCCC(C)(C)CO)O1 (stereo not drawn)
-- reply -74

// next item, Change requested
-- ask Answer with the recorded Change for the molecule listed here: CC(C)(CCCCCCCCCCCC(C)(C)C(=O)O)C(=O)O
-- reply -89

---

Reported Change by item:
# Tested on: Rattus norvegicus
# TEST NAME: Percent change from pre-treatment Non HDL-Cholesterol level at 100 mg/Kg after 1 week
# Type: functional
Form field: result (number plus unit)

-- ask Supply Change measured with Rattus norvegicus for CC(C)(CCCOCCOCCCC(C)(C)C(=O)O)C(=O)O .
-- reply -38%

Next:
-- ask Supply Change measured with Rattus norvegicus for CC(C)(CCCCOCCCCC(C)(C)CCC(=O)O)CCC(=O)O .
-- reply -50%

-- ask Supply Change measured with Rattus norvegicus for CC(C)(CO)CCCCOCCCCC(C)(C)COC1CCCCO1 (stereo not given) .
-- reply -28%

-- ask Supply Change measured with Rattus norvegicus for CC(C)(CO)CCCOCCOCCCC(C)(C)CO .
-- reply 33%

-- ask Supply Change measured with Rattus norvegicus for CC(C)(CO)CCCC1CCCC(CCCC(C)(C)CO)O1 (stereo not given) .
-- reply -70%

-- ask Supply Change measured with Rattus norvegicus for CC(C)(Cc1cccc(Oc2cccc(CC(C)(C)C(=O)O)c2)c1)C(=O)O .
-- reply -59%

---

# System: Rattus norvegicus
# TEST NAME: Percent change from pre-treatment triglycerides level at 100 mg/Kg after 2 weeks
# Type: functional
READOUT KIND: Change (%)
Reply numerically in %, unit not repeated.

// worked examples, Change included
-- ask Answer with the recorded Change for the compound listed here: CC(C)(CO)Cc1cccc(Oc2cccc(CC(C)(C)CO)c2)c1
-- reply -54

-- ask Answer with the recorded Change for the compound listed here: CC(C)(CO)CCCCCCCCCC(C)(C)CO
-- reply -82

Next:
-- ask Answer with the recorded Change for the compound listed here: CC(C)(CO)CCCCOCCCCC(C)(CO)c1ccccc1 (stereo not drawn)
-- reply -45

---

# Tested on: Rattus norvegicus
# TEST NAME: Percent change from pre-treatment triglycerides level at 100 mg/Kg after 1 week
# Assay type: functional
Please use MET whenever Change is not below -70%, and NOT MET whenever it is.

As a guide, the following entries are already answered.
-- ask Quick check, Change >= -70%? CC(C)(CO)CCCCCCCCCC(C)(C)CO
-- reply NOT MET

-- ask Quick check, Change >= -70%? CC(C)(CO)CCCCCOCCCCCC(C)(C)CO
-- reply NOT MET

-- ask Quick check, Change >= -70%? CC(CO)(CCCOCCCC(C)(CO)c1ccccc1)c1ccccc1 (stereo unspecified)
-- reply MET

-- ask Quick check, Change >= -70%? CC(C)(CCCCOCCCCC(C)(C)COC1CCCCO1)COC1CCCCO1 (stereo unspecified)
-- reply MET

Would you kindly look at the next entry?
-- ask Quick check, Change >= -70%? CC(C)(Cc1cccc(Oc2cccc(CC(C)(C)C(=O)O)c2)c1)C(=O)O
-- reply MET
